Please go through the items and note down their inhibition.
Procedure Details: growth inhibition of non-replicating M. tuberculosis (AID 488890);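 note: plate controls were DMSO cells for no effect and high antibiotic wells for full effect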
Measurement Conditions: Mycobacterium tuberculosis non-replicating, at 25 µM, stronger effect = higher value
Among all 320,000 compounds or so, about 1,300 (0.41%) were called active. Roughly 3% stayed inconclusive and do not appear here. A selection follows. Measured potencies and affinities stand elsewhere.
Numbers only, in %.

Recorded inhibition for Cc1ccsc1C(=O)N1CCC(N2CCC(C(=O)NCC3CCCO3)CC2)CC1 (centres undefined) , please? 1.59

Can you give me inhibition for all of these, one by one?
1. CNC(=S)NNC(=O)c1cn(C)nc1C
2. Cc1ccc(OCCCn2ccnc2)c(Br)c1

1. -3
2. 27.2

Give measured inhibition for every item shown.
1. Clc1ccccc1OCCCn1ccnc1
2. C=CCn1c(SCC(=O)Nc2ccc(C(=O)O)cc2)nc2scc(-c3ccccc3)c2c1=O

1: -0.75; 2: 6.43

// input: 5 compounds below; output: inhibition for each
1. CC(C)Cn1c(=O)c(C(=O)Nc2cnccn2)c(O)c2ccccc21
2. Clc1ccc(OCCn2ccnc2)c2ccccc12
3. Clc1cc(Br)ccc1OCCn1ccnc1
4. C=CCn1c(=O)c(C(=O)Nc2ccc(C)cc2)c(O)c2ccccc21
5. O=C(COc1ccccc1)NNC(=O)c1cc2ccccc2oc1=O

1: -0.18; 2: 17.9; 3: 40; 4: -32; 5: 10.5

====

Give measured inhibition for each item. Keep answers brief.
Procedure Details: growth inhibition of non-replicating M. tuberculosis (AID 488890)
Measurement Conditions: Mycobacterium tuberculosis non-replicating, at 25 µM, stronger effect = higher value
Hit rate of the full screen: of about 320,000 compounds, about 1,300 (0.41%) were called active. Not shown: some 3% with an inconclusive outcome. These entries were drawn from the full list. Measured potencies and affinities stand elsewhere.

Give inhibition for each listed item.
1. COc1cccc2c1OCC(C(=O)O)C2 (stereo not drawn)
2. CCCOc1ccc(CCC(=O)N/N=C/c2ccncc2)cc1
3. COc1ccc(/C=C/C(=O)Oc2ccc(C)cc2)cc1
4. Clc1ccc(N2CCN(c3ccnc(Cl)n3)CC2)cc1
5. Cc1cc(C)n(-c2cccc3cccnc23)n1

1: -4.89%; 2: 25.7%; 3: 65.3%; 4: 53%; 5: -3.86%

====

Give measured inhibition for each item. Keep answers brief.
Procedure Details: growth inhibition of non-replicating M. tuberculosis (AID 488890)
Measurement Conditions: Mycobacterium tuberculosis non-replicating, at 25 µM, stronger effect = higher value
Among all 320,000 compounds or so, about 1,300 (0.41%) were called active. Roughly 3% stayed inconclusive and do not appear here. These entries were drawn from the full list. Results with a measured potency or affinity are listed apart.
One number for each entry, in %.

Look at this compound and give its reported inhibition. "Cc1cc(Nc2ccccc2)n2nc(C)c(-c3ccccc3)c2n1" 15.2

Returns the measured inhibition for the input compound. Input: CC1=NN(C(=O)c2ccc(Cn3nc(C)cc3C)o2)C(O)(C(F)(F)F)C1 (centres undefined) 24.9

Endpoint output: inhibition of "COC(=O)N/N=C/c1cc(Br)ccc1O" . Value? 27.7

Respectfully, I request inhibition for each entry included below.
1. CC1=NN(C(=O)CCc2ccccc2O)C(O)(C(F)(F)F)C1 (centres undefined)
2. COc1ccc(CC(=O)N2N=C(C)CC2(O)C(F)(F)F)cc1 (centres undefined)

74.8
72.4

Would you mind giving inhibition for every compound in the list below?
1. COc1cccc(C(=O)Nc2ccc(-n3nncc3C(C)(C)C)cc2)c1
2. O=c1[nH]c(C2C3CC4CC(C3)CC2C4)nc2ccccc12 (centres undefined)

1: 9.74; 2: 21.6

Kindly give each listed record's inhibition.
1. Cc1cc(NCCC(C)C)n2nc(C)c(-c3ccccc3)c2n1
2. Nc1nc(-c2ccc3ccccc3c2)c(C2(O)C(=O)Nc3c(Br)cc(F)cc32)s1 (centres undefined)
3. O=C(Nc1ccc(Cl)cc1)C1CCCCN1S(=O)(=O)c1ccccc1 (centres undefined)
4. CCOC(=O)Oc1ccc(/C=C2\N=C(C)OC2=O)cc1
5. CC1=NN(C(=O)c2cccnc2)C(O)(C(F)(F)F)C1 (centres undefined)
6. O=C(N/N=C/c1cc(Br)ccc1O)Nc1ccccc1
7. CC1=NN(C(=O)c2nn(C)cc2Br)C(O)(C(F)(F)F)C1 (centres undefined)
8. CCN(CC)c1ccc2cc(C(C)=O)c(=O)oc2c1

[49.1, 0.16, 10.3, -12.5, -26.1, 14.3, 8.53, 3.33]

// each compound listed below needs its inhibition
1. CCCCN1CC(C(=O)NC2CCCCC2)CC1=O (centres undefined)
2. Cc1[nH]n2cnnc2c(=O)c1Br
3. COc1ccc(Cc2nnc(NC(=O)c3ccc(C)cc3)s2)cc1OC
4. O=C(Nc1cc(F)ccc1F)c1ccc(-n2cncn2)c([N+](=O)[O-])c1
5. CCOc1cc(C2NCc3ccccc3-n3cccc32)ccc1OC (centres undefined)
6. CCOC(=O)c1c(-n2cnnn2)sc2c1CCCC2
7. COc1ccc(OCC(=O)N2N=C(C)CC2(O)C(F)(F)F)cc1 (centres undefined)
8. CC1=NN(C(=O)CCc2ccc3c(c2)OCO3)C(O)(C(F)(F)F)C1 (centres undefined)

-9.76
-1.45
-7.61
3.94
1.16
0.53
75.8
-15.8

inhibition for "CCOC(=O)c1c(-c2ccccc2Cl)cn2ccccc12" ? 3.48

====

Procedure Details: growth inhibition of non-replicating M. tuberculosis (AID 488890);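 note: plate controls were DMSO cells for no effect and high antibiotic wells for full effect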
Measurement Conditions: Mycobacterium tuberculosis non-replicating, at 25 µM, stronger effect = higher value
Out of some 320,000 compounds screened, about 1,300 (0.41%) were called active. Another 3% or so got no clear call; they are omitted. A selection follows. Results with a measured potency or affinity are listed apart.
Measured Parameter: inhibition (%)
Numbers only, in %.

In the examples that follow, each entry is paired with its recorded inhibition.
Would you mind telling me what inhibition value was observed for "Cc1cc(C)n(-c2ccc(C(=O)OC(C)C)cc2)n1" ? 5.09

Param item = "COc1ccc(CC(=O)Nc2cc(C)on2)cc1OC" ; retrieve measured inhibition. -12.5

Return reported inhibition; argument: "O=C(O)c1ccc(Nc2ncc([N+](=O)[O-])cc2[N+](=O)[O-])cc1" 5.68

I have this molecule here, "O=C(c1ccc(-c2nc3ccccc3s2)s1)N1CCOCC1" , and I need its recorded inhibition. -4.2

Quick one: inhibition of "Cc1nn(-c2cccc3cccnc23)c(=O)c2ccccc12" ? 0.08

Please look at the items below and tell me inhibition for each one, in order.
1. Cc1nnc(C)n1N
2. CCOC(=O)C1CCN(S(=O)(=O)c2ccc(C)c(C)c2)CC1
3. O=C1NN(c2ccccc2)C(=O)/C1=C/c1ccc(-c2ccc(C(=O)O)cc2)o1
4. Cc1noc(C)c1COC(=O)c1ccc(-c2nc3ccccc3s2)s1
5. Cc1ccc(S(=O)(=O)N2CCC(C(=O)OCC(=O)NCCc3ccccc3)CC2)cc1C

-10.3
-7.38
37.2
9.44
27.8

====

Procedure Details: growth inhibition of non-replicating M. tuberculosis (AID 488890);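 note: plate controls were DMSO cells for no effect and high antibiotic wells for full effect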
Measurement Conditions: Mycobacterium tuberculosis non-replicating, at 25 µM, stronger effect = higher value
About 1,300 (0.41%) of roughly 320,000 compounds were called active. Inconclusive results (about 3%) are left out. A selection follows. Entries with a potency or affinity are not part of this list.
Measured Parameter: inhibition (%)
Numbers only, in %.

Would you please look over these solved cases?
Dear colleague, I am looking for the recorded inhibition of the following molecule: "CCOC(=O)c1c(NC(C)=O)sc2c(O)c(Br)ccc12" 33.9

Please give the measured inhibition for this molecule: "COc1cc(/C=C/[N+](=O)[O-])ccc1OC(=O)c1cc2ccccc2oc1=O" 37.8

Query (molecule): "CC(=O)Nc1ccc(C(=O)N2CCN(S(=O)(=O)c3ccc4c(c3)OCCCO4)CC2)cc1" ; field requested: inhibition -1.17

Hi there! I need inhibition for each item below, if you can.
1. Cc1cc(C)n(C(=O)c2ccc(C)c(S(=O)(=O)N3CCCCC3)c2)n1
2. CCCn1nnnc1NC(=O)c1cc(Br)ccc1OC
3. CCCn1nnnc1NCc1ccc(Cl)cc1Cl
4. Cc1nnc(NC(=O)c2ccc3ccccc3c2)s1
5. COC(=O)c1ccccc1NC(=O)CCCn1nc([N+](=O)[O-])cc1C
6. COc1ccc(C(=O)OCC(=O)NC(=O)NC(C)C)cc1OC
7. O=C(CCc1ccccc1)NNC(=O)c1cc(Cl)ccc1O

1: -9.14; 2: 66.1; 3: 1.4; 4: 9.74; 5: 1.55; 6: -0.28; 7: -5.64

Provide reported inhibition for each item, in the same order as listed.
1. CCCCC(=O)Nc1nnnn1CCC
2. Cc1ccc(O)c(C(=O)CC(=O)c2cccc(F)c2)c1

1: 12.9; 2: -5.71

====

Procedure Details: growth inhibition of non-replicating M. tuberculosis (AID 488890);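 note: plate controls were DMSO cells for no effect and high antibiotic wells for full effect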
Measurement Conditions: Mycobacterium tuberculosis non-replicating, at 25 µM, stronger effect = higher value
Screen size: about 320,000 compounds; about 1,300 (0.41%) were called active. Another 3% or so got no clear call; they are omitted. These entries were drawn from the full list. Potency and affinity values are given separately.
Measured Parameter: inhibition (%)
One number for each entry, in %.

I would be grateful if you could share the reported inhibition for O=C(Nc1cccc(NC(=O)C2CC3CCCC(C2)C3=O)n1)C1CC2CCCC(C1)C2=O (stereo unspecified) . 28.2

Below is a list of compounds. For each, state its recorded inhibition.
1. O=C(Cc1ccc(-c2ccccc2)cc1)OCC(=O)N1CCCC1=O
2. CC/C(=N\NS(=O)(=O)c1ccc(C)cc1)c1ccco1
3. CC1=NN(C(=O)Cc2ccccc2)C(O)(c2ccccc2)C1 (stereo unspecified)
4. Cc1nn(-c2nc3ccccc3s2)c(N)c1-c1ccc(Cl)cc1
5. CCn1nccc1C(=O)Nc1cccc(C)c1C
6. COc1ccc(C(=O)Nc2ccc3nc(N4CCN(C)CC4)cc(C)c3c2)c(OC)c1

1. 16.6
2. -13.4
3. 7.51
4. -4.69
5. 5.9
6. 76

Fill in inhibition for each of the 3 compounds listed.
1. Cc1nn(-c2nc3ccccc3[nH]2)c(=O)c2ccccc12
2. COc1ccc(-c2nn(-c3ccccc3F)cc2CNCCn2nc(C)cc2C)cc1
3. OCc1cn(-c2ccccc2)nc1-c1ccc(-c2nn(-c3ccccc3)cc2CO)cc1

34
52.6
-3.64

I am curious: what inhibition value has been reported for Cc1ccc(C)c(NC(=O)C2CC3CCC2C3)c1 (stereo unspecified) ? 15.3
